- protocolSummary: ATG_CMV_CIS: Attagene CIS-FACTORIAL HepG2 Assay for human CMV (Internal Marker) (AID 2282928);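 note: endpoint acts as a background internal control marker rather than a target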
- studyConditions: HepG2 CMV promoter reporter, transcription factor profiling; actives raise or lower the signal
- Experimental: ATG_CIS is a cell-based, multiplexed-readout assay that uses HepG2, a human liver cell line, with measurements taken at 24 hours after chemical dosing in a 24-well plate.ATG_CMV_CIS is one of 52 assay component(s) measured or calculated from the ATG_CIS assay. […] This assay endpoint, ATG_CMV_CIS, was analyzed with bidirectional fitting relative to DMSO as the negative control and baseline of activity. […]
The source made the active and inactive calls. Rule for the calls: active = hit-call score of the fitted dose curve at least 0.9, where 1 is the maximum; inactive = score below 0.9.
measure: AC50

O=c1[nH]c(=O)[nH]c(=O)[nH]1 | inactive
Clc1ccc(C2(Cn3cncn3)CC(Br)CO2)c(Cl)c1 (stereo unspecified) | 99.5 µM (active)
O=C(Nc1ccc2[nH]ccc2c1)c1cc2cc(F)ccc2n1Cc1cccc(F)c1 | 11 µM (active)
CCOC(=O)Nc1cccc(OC(=O)Nc2ccccc2)c1 | inactive
NC(=S)Nc1ccccc1 | inactive
ClCc1cccnc1 | inactive
Cc1ccc2ccccc2c1C | inactive
Nc1cccc(Cl)c1 | inactive
Nc1cccc2ccccc12 | inactive
Cl/C=C/Cl | inactive
CC(=O)C=C(C)C | inactive

====

- Read-out: Forkhead box O1 (FOXO1), FOXO1 (gene 2308)
- protocolSummary: LTEA_HepaRG_FOXO1: Life Technologies and Expression Analysis (LTEA) Assay for Forkhead box O1 (FOXO1) using HepaRG (AID 2283456)
- studyConditions: mRNA level, 48 h; actives raise or lower the signal
The source made the active and inactive calls. The calls were made as follows: active = hit-call score of the fitted dose curve at least 0.9, where 1 is the maximum; inactive = score below 0.9.
Outcome codes: active, inactive

CC(=O)[O][Hg][c]1ccccc1 | active
C=CC(=O)OCCCCCC(C)C | inactive
CCOP(=S)(OCC)Oc1nc(Cl)c(Cl)cc1Cl | inactive

====

- targetDesc: human Retinoid X Receptor beta (RXRb), RXRB (gene 6257)
- protocolSummary: ATG_RXRb_TRANS: Attagene TRANS-FACTORIAL HepG2 Assay for human Retinoid X Receptor beta (RXRb) (AID 2283013)
Records with an inconclusive call do not appear. Active and inactive are the calls of the source. The calls were made as follows: active = hit-call score of the fitted dose curve at least 0.9, where 1 is the maximum; inconclusive = response in the unintended direction; inactive = score below 0.9.
Labels: TRUE = active, FALSE = inactive

C[C@]12CC[C@H](O)CC1=CC[C@@H]1[C@@H]2CC[C@]2(C)C(=O)CC[C@@H]12 | FALSE
CC(=[OH+])/C=C(/C)[O-].CC(=[OH+])/C=C(/C)[O-].CC(=[OH+])/C=C(/C)[O-].[Al] | FALSE
CC(C)c1ccc(CO)cc1 | FALSE
CC(=O)[O][Hg][c]1ccccc1 | TRUE
O=C(CCl)CCl | FALSE

====

- targetDesc: Nuclear receptor subfamily 4 group A member 2 (Homo sapiens) (UniProt P43354)
- Sequence (P43354 whole entry, looked up): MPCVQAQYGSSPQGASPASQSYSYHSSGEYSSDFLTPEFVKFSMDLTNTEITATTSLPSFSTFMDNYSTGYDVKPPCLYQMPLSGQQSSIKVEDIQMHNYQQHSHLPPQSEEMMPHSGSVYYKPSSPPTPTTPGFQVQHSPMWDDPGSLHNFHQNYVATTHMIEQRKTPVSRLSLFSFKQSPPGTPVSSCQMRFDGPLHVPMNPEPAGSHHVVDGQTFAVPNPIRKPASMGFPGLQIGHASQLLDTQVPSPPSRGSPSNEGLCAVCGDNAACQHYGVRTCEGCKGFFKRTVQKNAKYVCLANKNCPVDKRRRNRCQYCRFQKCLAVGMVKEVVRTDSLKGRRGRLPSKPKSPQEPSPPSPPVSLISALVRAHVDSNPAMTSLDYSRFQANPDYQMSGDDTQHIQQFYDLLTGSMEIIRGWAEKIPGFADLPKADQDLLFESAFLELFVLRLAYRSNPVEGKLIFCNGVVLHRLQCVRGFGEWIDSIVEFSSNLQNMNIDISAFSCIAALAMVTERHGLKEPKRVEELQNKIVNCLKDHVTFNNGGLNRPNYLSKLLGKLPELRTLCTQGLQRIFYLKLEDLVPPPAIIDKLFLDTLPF
- protocolSummary: ATG_NURR1_TRANS: Attagene TRANS-FACTORIAL HepG2 Assay for human Nuclear Receptor Related Protein 1 (NURR1) (AID 2282985)
- studyConditions: HepG2 Attagene TRANS reporter, mRNA readout
Inconclusive results are not listed. The source made the active and inactive calls. How the source made its calls: active means hit-call score of the fitted dose curve at least 0.9, where 1 is the maximum; inconclusive means response in the unintended direction; inactive means score below 0.9.
Classes used: YES for active, NO for inactive

COc1ccc(OC)c(C=O)c1 | NO
c1ccc(N=NNc2ccccc2)cc1 | YES
Nc1ccc(N=Nc2ccc(-c3ccc(N=Nc4c(S(=O)(=O)O)cc5cc(S(=O)(=O)O)c(N=Nc6ccccc6)c(O)c5c4N)cc3)cc2)c(N)c1 | NO
COc1ccc(C=O)cc1OC | NO
CC1(C)Cc2cccc(O)c2O1 | NO
CCOP(=O)(CN(CCO)CCO)OCC | NO
O=C(Nc1ccc2[nH]ccc2c1)c1cc2cc(F)ccc2n1Cc1cccc(F)c1 | NO
CN(C)N=O | NO
CCCCCCCCCl | NO
O=Cc1cccc(Oc2ccccc2)c1 | NO
CCCCC(CC)CO[N+](=O)[O-] (stereo unspecified) | NO
COP(=S)(OC)Oc1cc(Cl)c(Cl)cc1Cl | NO
CCC[CH2][Sn]([CH2]CCC)([CH2]CCC)[O]C(=O)c1ccccc1 | YES
Clc1nc(Cl)nc(Cl)n1 | NO
O=C(CCl)CCl | NO
CC(C)(C)CC(C)(C)c1ccc(O)cc1 | NO
Nc1ncc([N+](=O)[O-])s1 | NO
CC(C)c1cccc(C(C)C)c1O | NO
CCOP(=S)(OCC)Oc1nc(Cl)c(Cl)cc1Cl | NO
CCCCCCCCc1ccc(O)cc1 | NO
C=CCc1ccc(OC)cc1 | NO
